Target: Sialin (Rattus norvegicus, UniProt Q5Q0U0)
Sequence (Q5Q0U0 1-495): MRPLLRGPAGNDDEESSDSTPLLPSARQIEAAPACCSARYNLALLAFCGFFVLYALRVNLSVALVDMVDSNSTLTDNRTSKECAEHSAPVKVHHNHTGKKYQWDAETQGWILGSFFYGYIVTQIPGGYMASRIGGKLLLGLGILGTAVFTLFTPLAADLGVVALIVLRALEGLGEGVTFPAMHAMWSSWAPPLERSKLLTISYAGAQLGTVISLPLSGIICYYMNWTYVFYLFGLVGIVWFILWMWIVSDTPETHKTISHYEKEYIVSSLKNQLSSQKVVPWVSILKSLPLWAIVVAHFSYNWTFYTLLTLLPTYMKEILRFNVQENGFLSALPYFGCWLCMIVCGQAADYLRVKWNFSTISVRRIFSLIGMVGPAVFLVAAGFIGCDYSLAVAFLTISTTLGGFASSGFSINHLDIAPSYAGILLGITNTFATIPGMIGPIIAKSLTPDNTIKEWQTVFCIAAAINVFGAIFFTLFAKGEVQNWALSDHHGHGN
Experiment: inhibition of 3H-glucuronic acid uptake by unlabelled compound in transfected HEK293T cells
Details: room temperature, 4 min, Ringer's solution; self-competition with labelled compound
VALUE_KIND: IC50

### Prompt Requested read-out: IC50. Entry: O=C(O)[C@H]1OC(O)[C@H](O)[C@@H](O)[C@@H]1O (stereo partly shown)
### Response ~2000 µM

###

target: Sialin (Rattus norvegicus, UniProt Q5Q0U0, Y54F, form not given); assay: inhibition of 3H-glucuronic acid uptake by unlabelled compound in transfected HEK293T cells; details: room temperature, 4 min, Ringer's solution; self-competition with labelled compound
VALUE_KIND: IC50

### Prompt Any idea what IC50 was measured for O=C(O)[C@H]1OC(O)[C@H](O)[C@@H](O)[C@@H]1O (stereo partly shown) ?
### Response ~3 mM
